Read-out: Vascular endothelial growth factor receptor 2 (Homo sapiens) (UniProt P35968)
Experiment: BSK_4H_VEGFRII: BioMAP Diversity Plus: 4H Assay for Vascular endothelial growth factor receptor 2 (VEGFR2) Biomarker Activity (AID 2283031)
Details: primary human endothelial cells (HUVEC); actives raise or lower the signal
Procedure: BSK_4H is a cell-based, multiplexed-readout assay that uses umbilical vein endothelium, a human vascular primary cell, with measurements taken at 24 hours after chemical dosing in a 96-well plate.BSK_4H_VEGFRII is an assay component measured in the BSK_4H assay. It measures VEGFRII antibody related to regulation of gene expression using ELISA technology.Data from the assay component BSK_4H_VEGFRII was analyzed into 1 assay endpoint. […]
Activity calls are given as the source filed them. Rule for the calls: active = hit-call score of the fitted dose curve at least 0.9, where 1 is the maximum; inactive = score below 0.9.
Response enum: active, inactive

Task: Called result for FC(F)(F)C(F)(F)C(F)(F)C(F)(F)C(F)(F)C(F)(F)CCI
Output: inactive

Task: Called result for Cc1cc(=O)[nH]c(=S)[nH]1
Output: inactive

Task: Called result for COC(=O)c1ccc(O)cc1
Output: inactive

Task: Called result for CN1CCCC1=O
Output: inactive

Task: Called result for O=c1[nH]cc(F)c(=O)[nH]1
Output: inactive

Task: Called result for C=CCOC(=O)c1ccccc1C(=O)OCC=C
Output: inactive

Task: Called result for Nc1ccc(S(=O)(=O)c2ccc(N)cc2)cc1
Output: inactive

Task: Called result for CCCCCCOCCO
Output: inactive

Task: Called result for CC1=C(/C=C/C(C)=C/C=C/C(C)=C/CO)C(C)(C)CCC1
Output: inactive

Task: Called result for Nc1ccc2c(c1)C(=O)c1ccccc1C2=O
Output: inactive

Task: Called result for CN[C@H]1CC[C@@H](c2ccc(Cl)c(Cl)c2)c2ccc(S(N)(=O)=O)cc21
Output: active

Task: Called result for CCCCCC(=O)O
Output: inactive

Task: Called result for CC(C)c1ccc(C(=O)N=C(N)N)cc1S(C)(=O)=O
Output: inactive

Task: Called result for Cc1ccccc1Cl
Output: inactive

Task: Called result for CCCCCCCCCCCCCO
Output: active

Task: Called result for Cc1ccc(C)c(C)c1
Output: inactive

Task: Called result for CCCCOC(=O)CCCCCCCCC(=O)OCCCC
Output: inactive

Task: Called result for COc1ccc(S(=O)(=O)N2C(=O)[C@@](c3ccccc3OC)(N3C[C@H](O)C[C@H]3C(=O)N(C)C)c3cc(Cl)ccc32)c(OC)c1
Output: inactive

Task: Called result for Cc1cccc(Nc2cc(Cl)nc(SCC(=O)O)n2)c1C
Output: inactive

Task: Called result for CCCCCCCCCCCC(=O)OC
Output: inactive

Task: Called result for CCc1c(C(=O)NN2CCCCC2)nn(-c2ccc(Cl)cc2Cl)c1-c1ccc(Br)cc1
Output: active

Task: Called result for CCCCN(CCCC)CCCC
Output: inactive

Task: Called result for Cc1nc(-c2ccc3c(c2)CCN(CCC2CCC(NC(=O)/C=C/c4ccc(F)cc4)CC2)CC3)no1 (configuration not stated)
Output: inactive

Task: Called result for Cc1oc(-c2ccccc2)nc1CCOc1cccc2c1ccn2CCC(=O)O
Output: inactive

Task: Called result for CCNc1cccc(C)c1
Output: inactive

Task: Called result for CCCCCCC(=O)OCC
Output: inactive

Task: Called result for CNC(=O)[C@H]1O[C@@H](n2cnc3c(NCc4cc(Cl)ccc4OCc4cc(C)no4)ncnc32)[C@H](O)[C@@H]1N
Output: inactive

###

Read-out: ABC Transporter (ABCB11), ABCB11 (gene 8647)
Assay: LTEA_HepaRG_ABCB11: Life Technologies and Expression Analysis (LTEA) Assay for ABC Transporter (ABCB11) using HepaRG (AID 2283463)
Details: mRNA level, 48 h; actives raise or lower the signal
Activity calls are given as the source filed them. Rule for the calls: active = hit-call score of the fitted dose curve at least 0.9, where 1 is the maximum; inactive = score below 0.9.
Response enum: 1.0 for active, 0.0 for inactive

Task: Called result for CC(=O)C(C)=CC1C(C)=CCCC1(C)C (stereo unspecified)
Output: 0.0

Task: Called result for CC=Cc1ccc(O)c(OC)c1
Output: 0.0

Task: Called result for O=C(O)CCCCC(=O)O
Output: 0.0

Task: Called result for CCCCN(CCCC)CCCC
Output: 0.0

Task: Called result for CCCCCCCCCCCCCO
Output: 0.0

Task: Called result for COc1cc(S(=O)(=O)O)c(C)cc1N=Nc1c(O)ccc2cc(S(=O)(=O)O)ccc12
Output: 0.0

Task: Called result for Cc1ccc(N(C)C)cc1
Output: 0.0

Task: Called result for OC[C@@H](O)[C@@H](O)[C@H](O)[C@H](O)CO
Output: 0.0

Task: Called result for Cc1nc(-c2ccc3c(c2)CCN(CCC2CCC(NC(=O)/C=C/c4ccc(F)cc4)CC2)CC3)no1 (stereo unspecified)
Output: 0.0

Task: Called result for CCCCOC(=O)CCCCCCCCC(=O)OCCCC
Output: 0.0

Task: Called result for CCCCCCCCCCC
Output: 0.0

Task: Called result for CCCCC(CC)COC(=O)CC(C(=O)OCC(CC)CCCC)S(=O)(=O)O (stereo unspecified)
Output: 0.0

Task: Called result for NC(=O)Cn1c(=O)cc(CCN2CCN(c3nccc4sccc34)CC2)c2ccc(F)cc21
Output: 0.0

Task: Called result for Nc1nc(N)c2nc(CNc3ccc(C(=O)N[C@@H](CCC(=O)O)C(=O)O)cc3)cnc2n1
Output: 1.0

Task: Called result for CCCCCCOCCO
Output: 0.0

Task: Called result for CN[C@H]1CC[C@@H](c2ccc(Cl)c(Cl)c2)c2ccc(S(N)(=O)=O)cc21
Output: 1.0

Task: Called result for CCOC(=O)CCC(=O)OCC
Output: 0.0

Task: Called result for CC(=O)OCCOCCOCCOC(C)=O
Output: 0.0

Task: Called result for CCCCCCCCCCCCCCCCCC(=O)O
Output: 0.0

Task: Called result for CN1CCN(Cc2cc(-c3ccc4[nH]c(=O)oc4c3)co2)[C@@H](c2ccc(F)cc2)C1
Output: 1.0

Task: Called result for CC1(C)NC(=O)NC1=O
Output: 0.0

Task: Called result for O=C(N[C@@H](Cc1ccccc1)[C@@H](O)C(=O)N1C[C@@H](O)[C@@H](O)C1)c1cc2cc(Cl)ccc2[nH]1
Output: 0.0

Task: Called result for O=C(OCCCCCOC(=O)c1ccccc1)c1ccccc1
Output: 1.0

Task: Called result for CCNc1cccc(C)c1
Output: 0.0

Task: Called result for CC(CO)OC(C)CO (stereo unspecified) (tested in a mixture with another compound)
Output: 0.0

Task: Called result for Nc1ccc2c(c1)C(=O)c1ccccc1C2=O
Output: 1.0

###

Read-out: Human Leukocyte Antigen - DR isotype (HLADR), HLA-DRA (gene 3122)
Assay: BSK_BE3C_HLADR: BioMAP Diversity Plus: BE3C Assay for Human Leukocyte Antigen - DR isotype (HLADR) Biomarker Activity (AID 2283032)
Settings: primary human bronchial epithelial cells; actives raise or lower the signal
Description: BSK_BE3C is a cell-based, multiplexed-readout assay that uses bronchial epithelial cell, a human lung primary cell, with measurements taken at 24 hours after chemical dosing in a 96-well plate.BSK_BE3C_HLADR is an assay component measured in the BSK_BE3C assay. It measures HLA-DR antibody related to regulation of gene expression using ELISA technology.Data from the assay component BSK_BE3C_HLADR was analyzed into 1 assay endpoint. […]
The source made the active and inactive calls. The calls were made as follows: active = hit-call score of the fitted dose curve at least 0.9, where 1 is the maximum; inactive = score below 0.9.
Response enum: active, inactive

Task: Called result for Oc1ccc2ccccc2c1N=Nc1ccccc1
Output: inactive

Task: Called result for Cc1ccc(C)c(C)c1
Output: inactive

Task: Called result for COCCOCCOC
Output: inactive

Task: Called result for CCOC(=O)C(C)(C)Oc1ccc(Cl)cc1
Output: inactive

Task: Called result for Cc1cccc([N+](=O)[O-])c1C
Output: inactive

Task: Called result for CC1(C)CC(N=C=O)CC(C)(CN=C=O)C1 (centres undefined)
Output: inactive

Task: Called result for C1CCC(SSC2CCCCC2)CC1
Output: inactive

Task: Called result for O=c1[nH]cc(F)c(=O)[nH]1
Output: inactive

Task: Called result for CC1(C)NC(=O)NC1=O
Output: inactive

Task: Called result for COc1ccc(C)cc1N
Output: inactive

Task: Called result for Cc1c(C(=O)O)c(O)cc2c1C(=O)c1c(O)c([C@@H]3O[C@H](CO)[C@@H](O)[C@H](O)[C@H]3O)c(O)c(O)c1C2=O
Output: inactive

Task: Called result for Cc1ccccc1Cl
Output: inactive

Task: Called result for COC(=O)c1ccc(O)cc1
Output: inactive

Task: Called result for Cc1oc(-c2ccccc2)nc1CCOc1cccc2c1ccn2CCC(=O)O
Output: active

###

Test: CCTE_Shafer_MEA_acute_burst_percentage_mean: CCTE's Neural Acute Assay for Percentage of Spikes in a Burst, Shafer Lab (AID 2284017)
Activity calls are given as the source filed them. How the source made its calls: active means hit-call score of the fitted dose curve at least 0.9, where 1 is the maximum; inactive means score below 0.9.
Response enum: active, inactive

Task: Called result for O=C(O)CCCCC(=O)O
Output: inactive

Task: Called result for Nc1ccccc1N
Output: inactive

Task: Called result for NCC1(Cc2noc(=O)[nH]2)CCCCC1
Output: inactive

Task: Called result for COc1ccc2c(c1)c(CC(=O)O)c(C)n2C(=O)c1ccc(Cl)cc1
Output: inactive

Task: Called result for CCOC(=O)C(C)(C)Oc1ccc(Cl)cc1
Output: inactive

Task: Called result for Clc1cc(Cl)c(Cl)cc1Cl
Output: inactive

Task: Called result for Cc1ccc(C)c(O)c1C
Output: active

Task: Called result for Cc1ccc(C(C)C)c(O)c1
Output: active
